Taken from ChEMBL document CHEMBL1201862.

System: DLD-1
Test: NCI tumour cell line growth inhibition, 48 h
Calls of active or inactive are those of the source. Cut-off read from the data, not from the text of the source: active = GI50 up to about 1.1 µM and inactive = higher.
Outcomes: active, inactive

# COMPOUND, LABEL CLASS
rows = [
    ("Cc1cc(=O)n(-c2ccccc2)c(=O)o1", "inactive"),
    ("COC(=O)C(Cc1nc2ccc(Cl)cc2nc1O)/C(=N/O)C(=O)Nc1cccc(Cl)c1C (stereo not drawn)", "inactive"),
    ("CCC1(CC)C(=O)NC(=S)N=C1N", "inactive"),
    ("C[N+](C)(C)CC(=O)N/N=C(\\CCC(=O)NCCc1ccccc1)CC(=O)c1ccccc1", "inactive"),
    ("Cc1ccc(-c2cc(O)c3cc4c(cc3n2)OCO4)cc1", "active"),
    ("C/C(=C/C(=O)Nc1ccccc1)Nc1onc(C)c1C", "inactive"),
    ("COc1ccccc1/N=N/c1c(-c2ccccc2)nn(C(=O)CC(=O)Nc2cccc(C)c2)c1-c1ccccc1", "inactive"),
    ("COc1ccc(/C(Cl)=C(\\C=O)c2ccc(OC)c(OC)c2)cc1OC", "inactive"),
    ("c1ccc(COCC2OC3c4ccccc4COC3C2OCc2ccccc2)cc1 (stereo not drawn)", "inactive"),
    ("O=C[C@@H](CO)O[C@H](C=O)n1cnc2c(=O)nc[nH]c21", "inactive"),
    ("CCOC(=O)/C(C#N)=C1/C(O)=C(C(=O)OC)C(C(=O)OC)=C1C(=O)OC.c1ccncc1", "inactive"),
    ("CC(C)[C@H](COC(C)(C)C)/N=C/N1CSc2ccccc21", "inactive"),
    ("O=C(C=P(c1ccccc1)(c1ccccc1)c1ccccc1)CC(=S)CC(=O)C=P(c1ccccc1)(c1ccccc1)c1ccccc1", "inactive"),
    ("NCCNc1ccc(NCCN)c2c1C(=O)c1c(O)ccc(O)c1C2=O", "active"),
    ("COC1CCC(OS(C)(=O)=O)C(CO)O1 (stereo not drawn)", "inactive"),
    ("CCOC(=O)[C-]([N+]#N)[Si](C)(C)C", "inactive"),
    ("NC(=S)N/N=C/c1cn(CCCl)c2ccccc12", "inactive"),
    ("CCOc1ccc(NCC(=O)N2CC(=O)Nc3ccccc32)cc1", "inactive"),
    ("CC12CCC(=O)C[C@H]1CCC(OC=O)C2Br (stereo partly drawn)", "inactive"),
    ("CCNC(=O)COc1ccc(Cl)cc1Cl", "inactive"),
    ("CS/C(=N\\c1ccccc1Cl)NC(=O)c1ccc(Br)cc1", "inactive"),
    ("COc1ccc2c(c1)-c1nn(CCCN(C)C)c3ccc([N+](=O)[O-])c(c13)N2", "active"),
    ("Cc1ccc(Sc2ccccc2[N+](=O)[O-])cc1", "inactive"),
]

* * *

Tested on: SF-268
Experiment: NCI tumour cell line growth inhibition, 48 h
The source made the active and inactive calls. Rule as the data show it: active = GI50 up to about 1.1 µM and inactive = higher.

# COMPOUND, GI50
measured = [
    ("CCOC(=O)C1(C#N)C(c2ccccc2)CC(O)(c2ccc([N+](=O)[O-])cc2)C(C(=O)c2ccc([N+](=O)[O-])cc2)C1c1ccccc1 (stereo not given)", "> 100 µM (inactive)"),
    ("COc1ccc(/C(Cl)=C(\\C=O)c2ccc(OC)c(OC)c2)cc1OC", "37.2 µM (inactive)"),
    ("C[C@]1(O)CC[C@H]2[C@@H]3CCc4cc(O)ccc4[C@H]3CC[C@@]21C", "3.46 µM (inactive)"),
    ("COc1cc(C2C(Cl)C(=O)N2NC(=O)Cc2ccccc2)ccc1O (stereo not given)", "> 100 µM (inactive)"),
    ("Cc1c(C)n(-c2ccccc2)c2nc(S(C)(=O)=O)nc(S(C)(=O)=O)c12", "14 µM (inactive)"),
    ("Cc1cccc(CNc2[nH]cnc3nncc2-3)c1", "> 100 µM (inactive)"),
    ("CC1=C(C(=O)Nc2cccc3c2C(=O)NC3=O)CC(C(=O)Nc2cccc3c2C(=O)NC3=O)=C(C)N1", "> 100 µM (inactive)"),
    ("O=C(Nc1ccccc1)n1cc(-c2ccccn2)c(N2CCOCC2)n1", "> 100 µM (inactive)"),
    ("O=[N+]([O-])c1c2nc3n(c2cc2c1nc1n2CCC1)CCC3", "> 100 µM (inactive)"),
    ("C=C(C)C1CC=C(C(=O)O)CC1 (stereo not given)", "1190 µM (inactive)"),
]
